Data origin: patent US20240262826A1

tested-target: wild type c-kit (Homo sapiens (Human))
Sequence (P10721 26-976): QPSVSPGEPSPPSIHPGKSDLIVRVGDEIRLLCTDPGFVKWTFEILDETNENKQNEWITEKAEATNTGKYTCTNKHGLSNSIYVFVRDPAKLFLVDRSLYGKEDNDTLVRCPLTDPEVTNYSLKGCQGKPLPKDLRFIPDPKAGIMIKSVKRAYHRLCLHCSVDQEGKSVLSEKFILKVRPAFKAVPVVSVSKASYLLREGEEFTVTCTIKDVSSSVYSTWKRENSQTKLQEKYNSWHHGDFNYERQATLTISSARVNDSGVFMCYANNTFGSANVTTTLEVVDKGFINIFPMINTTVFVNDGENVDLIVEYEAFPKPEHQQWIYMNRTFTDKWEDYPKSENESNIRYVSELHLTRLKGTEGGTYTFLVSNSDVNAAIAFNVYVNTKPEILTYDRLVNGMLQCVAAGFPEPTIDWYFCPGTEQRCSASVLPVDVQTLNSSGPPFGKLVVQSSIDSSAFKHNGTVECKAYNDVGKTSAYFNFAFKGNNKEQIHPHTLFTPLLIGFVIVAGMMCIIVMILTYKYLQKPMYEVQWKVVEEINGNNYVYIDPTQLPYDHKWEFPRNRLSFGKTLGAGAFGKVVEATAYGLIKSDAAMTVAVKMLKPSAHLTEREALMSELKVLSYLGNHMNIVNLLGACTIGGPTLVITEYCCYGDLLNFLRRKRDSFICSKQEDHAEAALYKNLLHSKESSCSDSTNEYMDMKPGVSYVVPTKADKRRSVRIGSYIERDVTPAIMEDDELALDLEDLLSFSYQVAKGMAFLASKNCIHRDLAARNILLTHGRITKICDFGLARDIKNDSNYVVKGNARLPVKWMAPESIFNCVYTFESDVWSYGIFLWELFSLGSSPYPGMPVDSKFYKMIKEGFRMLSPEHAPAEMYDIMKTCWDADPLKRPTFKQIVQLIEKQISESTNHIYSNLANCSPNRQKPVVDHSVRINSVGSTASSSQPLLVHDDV
assay-explanation: PathScan phospho c-kit (Tyr719) sandwich ELISA in SCF-stimulated M-07e cells (pKIT assay)
Format: cell-based
condition-label: ELISA assay (values not marked *)
quantity: IC50 (nM)

| compound | quantity | readout-number |
| --- | --- | --- |
| Cc1nnn(-c2ccc(C)c(NC(=O)c3cnn4ccc(Nc5cn[nH]c5)cc34)c2)n1 [Example 231] | IC50 | 3.6 |
| Cc1ccc(-c2nnn(C3CC3)n2)cc1NC(=O)c1cnn2ccc(-c3cnn(CCN4CCN(C)CC4)c3)cc12 [Example 219] | IC50 | 1.1 |
| COC(=O)N1CC(c2cnn(-c3ccc(C)c(NC(=O)c4cnn5cc(N6CCOCC6)ccc45)c3)n2)C1 [Example 160] | IC50 | 14.9 |
| COC[C@@H](O)Cn1cc(-c2ccn3ncc(C(=O)Nc4cc(-c5nnn(C6CC6)n5)ccc4Cl)c3c2)cn1 [Example 237] | IC50 | 0.5 |

* * *

tested-target: human P-glycoprotein (P-gp, MDR1) (Homo sapiens (Human), UniProt P08183)
Sequence (P08183 whole entry): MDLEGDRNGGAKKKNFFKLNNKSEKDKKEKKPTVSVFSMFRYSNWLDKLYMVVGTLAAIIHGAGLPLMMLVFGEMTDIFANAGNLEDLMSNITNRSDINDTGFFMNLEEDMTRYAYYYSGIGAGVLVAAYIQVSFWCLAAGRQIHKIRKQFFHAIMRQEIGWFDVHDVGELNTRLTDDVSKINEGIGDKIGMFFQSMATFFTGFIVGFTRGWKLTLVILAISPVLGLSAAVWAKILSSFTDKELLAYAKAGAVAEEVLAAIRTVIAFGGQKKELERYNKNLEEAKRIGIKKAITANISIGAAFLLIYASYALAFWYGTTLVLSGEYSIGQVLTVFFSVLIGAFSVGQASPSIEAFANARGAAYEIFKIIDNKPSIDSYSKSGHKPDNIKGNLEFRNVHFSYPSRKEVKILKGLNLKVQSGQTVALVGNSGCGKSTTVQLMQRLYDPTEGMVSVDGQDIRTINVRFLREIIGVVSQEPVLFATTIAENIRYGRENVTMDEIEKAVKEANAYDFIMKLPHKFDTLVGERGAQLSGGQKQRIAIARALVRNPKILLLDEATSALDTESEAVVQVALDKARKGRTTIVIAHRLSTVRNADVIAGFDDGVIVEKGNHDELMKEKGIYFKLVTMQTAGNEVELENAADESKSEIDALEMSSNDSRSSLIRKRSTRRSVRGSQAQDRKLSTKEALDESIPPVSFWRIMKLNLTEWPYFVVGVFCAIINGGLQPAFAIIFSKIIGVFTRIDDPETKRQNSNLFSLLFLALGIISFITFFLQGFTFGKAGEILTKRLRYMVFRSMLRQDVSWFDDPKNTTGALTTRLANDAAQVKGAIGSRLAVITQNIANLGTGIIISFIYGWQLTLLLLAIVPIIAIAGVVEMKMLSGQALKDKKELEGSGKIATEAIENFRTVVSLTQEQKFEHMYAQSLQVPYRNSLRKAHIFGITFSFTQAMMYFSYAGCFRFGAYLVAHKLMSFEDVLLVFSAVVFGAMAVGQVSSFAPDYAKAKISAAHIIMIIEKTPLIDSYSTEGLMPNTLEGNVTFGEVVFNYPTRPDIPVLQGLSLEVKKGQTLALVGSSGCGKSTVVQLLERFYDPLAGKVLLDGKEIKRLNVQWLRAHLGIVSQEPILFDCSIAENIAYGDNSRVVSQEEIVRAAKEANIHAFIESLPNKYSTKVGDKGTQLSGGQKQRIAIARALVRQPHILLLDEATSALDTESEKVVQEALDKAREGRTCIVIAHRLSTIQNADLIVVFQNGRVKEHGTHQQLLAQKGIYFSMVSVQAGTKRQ
assay-explanation: MDCK-MDR1 cell monolayer drug transport assay (P-gp efflux ratio)
Type: in vitro ADME
condition-label: pH 7.4, MDCK-MDR1 cells, 1 uM concentration of compound, read-out: Pgp Efflux Ratio, 1 uM
quantity: efflux ratio at 2 h, 1 µM

| compound | quantity | readout-number |
| --- | --- | --- |
| Cc1cnn(-c2ccc(C)c(NC(=O)c3cnn4ccc(-c5cnn(C[C@@H]6CNCCO6)c5)cc34)c2)n1 | efflux ratio at 2 h, 1 µM | 62.1 |
| Cc1ccc(-c2nnn([C@H]3C[C@@H](C(F)(F)F)C3)n2)cc1NC(=O)c1cnn2ccc(NCCO)cc12 | efflux ratio at 2 h, 1 µM | 35.9 |
| COC(=O)N1CC(c2cnn(-c3ccc(C)c(NC(=O)c4cnn5ccc(N6CCOCC6)cc45)c3)n2)C1 | efflux ratio at 2 h, 1 µM | 4 |
| Cc1ccc(-n2nnc(C3CC3)n2)cc1NC(=O)c1cnn2cc(-c3cnn(CC4(O)CCOCC4)c3)cc(F)c12 | efflux ratio at 2 h, 1 µM | 3 |
| COC(=O)N1CC(c2cnn(-c3ccc(C)c(NC(=O)c4cnn5ccc(NCC6COC6)cc45)c3)n2)C1 | efflux ratio at 2 h, 1 µM | 72.2 |
| Cc1ccc(-c2nnn([C@H]3C[C@@H](C(F)(F)F)C3)n2)cc1NC(=O)c1cnn2ccc(N3CCN(CCO)CC3)cc12 | efflux ratio at 2 h, 1 µM | 37.4 |
| Cc1cc(Cl)c(NC(=O)c2cnn3ccc(-c4cn(CC5(O)CCOCC5)nc4C)cc23)cc1-c1nnn(C2CC2)n1 | efflux ratio at 2 h, 1 µM | 3.9 |
| COC(=O)N1CC(n2nnc(-c3ccc(C)c(NC(=O)c4cnn5ccc(NCC(C)(C)OC)cc45)c3)n2)C1 | efflux ratio at 2 h, 1 µM | 9.5 |
| COC(=O)N1CC(n2nnc(-c3ccc(C)c(NC(=O)c4cnn5ccc(NCCOC(C)(C)C)cc45)c3)n2)C1 | efflux ratio at 2 h, 1 µM | 11.4 |
| Cc1cc(Cl)c(-c2nnn(C3CC(F)(F)C3)n2)cc1NC(=O)c1cnn2ccc(N3CCOCC3)cc12 | efflux ratio at 2 h, 1 µM | 3.2 |
| Cc1ccc(-c2nnn(C)n2)cc1NC(=O)c1cnn2ccc(-c3cnn(C[C@@H](C)O)c3)cc12 (mixture of isomers) | efflux ratio at 2 h, 1 µM | 10.9 |
| COCCNc1ccn2ncc(C(=O)Nc3cc(-n4nnc(C5CN(C(=O)OC)C5)n4)ccc3Cl)c2c1 | efflux ratio at 2 h, 1 µM | 3.4 |
| COCCNc1ccn2ncc(C(=O)Nc3cc(-c4nnn([C@H]5C[C@H](CO)C5)n4)c(F)cc3C)c2c1 | efflux ratio at 2 h, 1 µM | 19.1 |
| Cc1ccc(-c2nnn(C3CC(F)(F)C3)n2)cc1NC(=O)c1cnn2ccc(N3CC[C@H](O)C3)cc12 | efflux ratio at 2 h, 1 µM | 11 |

* * *

tested-target: wild type c-kit (Homo sapiens (Human))
assay-explanation: PathScan phospho c-kit (Tyr719) sandwich ELISA in SCF-stimulated M-07e cells (pKIT assay)
Type: cell-based
condition-label: ELISA assay (values not marked *)
pIC50: −log10 of the molar value.

| compound | pIC50 |
| --- | --- |
| COCCNc1ccn2ncc(C(=O)Nc3cc(-c4nnn(C5CN(C(=O)OC)C5)n4)ccc3C)c2c1C | 7.15 |
| Cc1ccc(-c2nnn(C)n2)cc1NC(=O)c1cnn2ccccc12 | 8.32 |
| CCNc1ccn2ncc(C(=O)Nc3cc(-c4nnn(C5CN(C(=O)OC)C5)n4)ccc3C)c2c1 | 7.52 |
| COCCNc1ccn2ncc(C(=O)Nc3cc(-n4ncc(C5CN(C(=O)OC)C5)n4)ccc3C)c2c1 | 7.75 |
| Cc1ccc(-c2nnn(CC3CC3)n2)cc1NC(=O)c1cnn2ccccc12 | 7.87 |
| COC[C@@H]1CCN1c1ccn2ncc(C(=O)Nc3cc(-c4nnn(C5CN(C(=O)OC)C5)n4)ccc3C)c2c1 (stereo in doubt) | 7.60 |
| COC(=O)N1CC(n2nnc(-c3ccc(C)c(NC(=O)c4cnn5ccc(N6CCC(F)(F)CC6)cc45)c3)n2)C1 | 7.50 |

* * *

tested-target: UniProt P10721
assay-explanation: PathScan phospho c-kit (Tyr719) sandwich ELISA in SCF-stimulated M-07e cells (pKIT assay)
Type: cell-based
condition-label: ELISA assay (values not marked *)
Criterion: IC50 strictly under 7 nM. Met: 1. Not met: -1.

| compound | assigned-category |
| --- | --- |
| Cc1cc(F)c(-c2nnn(C3CC3)n2)cc1NC(=O)c1cnn2ccc(-c3cn(CC(C)(C)O)nc3C)cc12 | 1 |
| COC(=O)N1CC(n2nnc(-c3ccc(C)c(NC(=O)c4cnn5ccc(N6CCC[C@@H](O)C6)cc45)c3)n2)C1 | -1 |
| Cn1nnc(-c2ccc(F)c(NC(=O)c3cnn4ccc(-c5cnn(CC(C)(C)O)c5)cc34)c2)n1 | -1 |
| Cc1ccc(-c2nnn(C3CC(F)(F)C3)n2)cc1NC(=O)c1cnn2ccc(NCCO)cc12 | 1 |
| COCCNc1ccn2ncc(C(=O)Nc3cc(-c4nnn(C[C@H]5CC5(F)F)n4)ccc3C)c2c1 (single isomer, unassigned) | 1 |
| COCCNc1ccn2ncc(C(=O)Nc3cc(-c4nnn([C@H]5C[C@@H](C(F)(F)F)C5)n4)c(F)cc3C)c2c1 | -1 |
| Cc1cc(Cl)c(NC(=O)c2cnn3ccc(N4CCOCC4)cc23)cc1-c1nnn(C2CC(F)(F)C2)n1 | 1 |
| Cc1cc(C2CC2)c(-c2nnn(C3CC(F)(F)C3)n2)cc1NC(=O)c1cnn2ccc(N3CCOCC3)cc12 | -1 |
| Cc1ccc(-c2nnn(C)n2)cc1NC(=O)c1cnn2ccc(-c3cnn(C[C@H](C)O)c3)cc12 (single isomer, unassigned) | 1 |
| COC(=O)N1CC(n2nnc(-c3cc(NC(=O)c4cnn5cc(N6CCOCC6)ccc45)c(C)cc3F)n2)C1 | -1 |
| COC[C@@H](O)Cn1ncc(-c2ccn3ncc(C(=O)Nc4cc(-c5nnn(C6CC6)n5)ccc4Cl)c3c2)c1C | 1 |
| Cc1ccc(-c2nnn(C3CN(S(=O)(=O)CC4CCC4)C3)n2)cc1NC(=O)c1cnn2ccccc12 | -1 |
| COC(=O)N1CC(n2nnc(-c3ccc(C)c(NC(=O)c4cnn5ccc(N6CCC[C@H](O)C6)cc45)c3)n2)C1 | -1 |

* * *

tested-target: UniProt P10721
assay-explanation: PathScan phospho c-kit (Tyr719) sandwich ELISA in SCF-stimulated M-07e cells (pKIT assay)
Assay type: cell-based
condition-label: ELISA assay (values not marked *)
pIC50: −log10 of the molar value.

| compound | pIC50 |
| --- | --- |
| Cc1cnn(-c2ccc(C)c(NC(=O)c3cnn4ccc(-c5cnn(C[C@@H]6CNCCO6)c5)cc34)c2)n1 | 8.00 |
| Cc1ccc(-c2nnn(C3CN(S(=O)(=O)C4COC4)C3)n2)cc1NC(=O)c1cnn2ccccc12 | 7.34 |
| COCCOCCS(=O)(=O)N1CC(n2nnc(-c3ccc(C)c(NC(=O)c4cnn5ccccc45)c3)n2)C1 | 6.79 |
| CCNc1ccn2ncc(C(=O)Nc3cc(-c4nnn(C5CN(C(=O)OCC)C5)n4)ccc3C)c2c1 | 7.46 |
| Cc1ccc(-c2nnn(C3CC(F)(F)C3)n2)cc1NC(=O)c1cnn2ccc(N3CC[C@@H](O)C3)cc12 | 8.02 |
| Cc1nn(CC(C)(C)O)cc1-c1ccn2ncc(C(=O)Nc3cc(-c4nnn(C5CC5)n4)c(F)cc3Cl)c2c1 | 9.40 |
| COC(=O)N1CC(n2nnc(-c3ccc(C)c(NC(=O)c4cnn5ccc(NCC(C)(C)O)cc45)c3)n2)C1 | 7.15 |
| COC(=O)N1CC(n2nnc(-c3ccc(C)c(NC(=O)c4cnn5ccc(N6CC[C@H]6CO)cc45)c3)n2)C1 | 7.06 |
| COC(=O)N1CC(n2nnc(-c3ccc(C)c(NC(=O)c4cnn5ccc(NCC(C)(C)OC)cc45)c3)n2)C1 | 7.43 |
| COCCNc1ccn2ncc(C(=O)Nc3cc(-c4nnn(CCCC(F)(F)F)n4)ccc3C)c2c1 | 8.49 |
| Cc1cc(F)c(-c2nnn(C3CC3)n2)cc1NC(=O)c1cnn2ccc(-c3cnn(CC(C)(C)O)c3)cc12 | 8.85 |
| Cc1ccc(-c2nnn(C3CC3)n2)cc1NC(=O)c1cnn2ccc(-c3cnn(C[C@H]4CNCCO4)c3)cc12 | 9.15 |
| Cc1ccc(-c2nnn([C@H]3C[C@@H](C(F)(F)F)C3)n2)cc1NC(=O)c1cnn2ccc(N3CC(C)(O)C3)cc12 | 8.26 |
| Cc1cc(F)c(-c2nnn([C@H]3C[C@@H](C(F)(F)F)C3)n2)cc1NC(=O)c1cnn2ccc(N3CC(C)(O)C3)cc12 | 8.43 |
| Cc1ccc(-c2nnn(C(C)C)n2)cc1NC(=O)c1cnn2ccc(-c3cnn(CCO)c3)cc12 | 8.89 |
| CNc1ccn2ncc(C(=O)Nc3cc(-c4nnn(C5CN(C(=O)OC)C5)n4)ccc3C)c2c1 | 7.46 |
| Cc1nn(C[C@H]2CN(C)CCO2)c(C)c1-c1ccn2ncc(C(=O)Nc3cc(-c4nnn(C5CC5)n4)ccc3Cl)c2c1 | 9.22 |
| Nc1ccn2ncc(C(=O)Nc3cc(-c4nnn(CC5CC5(F)F)n4)ccc3Cl)c2c1 (stereo not shown) | 7.71 |
| COCCNc1cc2c(C(=O)Nc3cc(-c4nnn(C5CN(C(=O)OC)C5)n4)ccc3C)cnn2cc1F | 7.46 |
| Cc1cc(F)c(-c2nnn(C3CC3)n2)cc1NC(=O)c1cnn2ccc(-c3cn(C[C@H](C)O)nc3C)cc12 | 9.30 |
| COC(=O)N1CC(n2nnc(-c3ccc(C)c(NC(=O)c4cnn5ccc(NCC6CCO6)cc45)c3)n2)C1 (stereo not shown) | 7.52 |
| Cc1cc(F)c(-c2nnn(C3CC3)n2)cc1NC(=O)c1cnn2ccc(-c3c(C)nn(C[C@H](C)O)c3C)cc12 | 9.40 |
| COC(=O)N1CC(c2cnn(-c3ccc(C)c(NC(=O)c4cnn5ccc(N6CCN(C7COC7)CC6)cc45)c3)n2)C1 | 7.30 |
| Cc1ccc(-n2nnc(C3CC3F)n2)cc1NC(=O)c1cnn2ccc(-c3cnn(CC(C)(C)O)c3)cc12 (stereo not shown) | 8.57 |
| Cc1nn([C@H](C)[C@@H](C)O)cc1-c1ccn2ncc(C(=O)Nc3cc(-c4nnn(C5CC5)n4)c(F)cc3Cl)c2c1 (single isomer, unassigned) | 9.05 |
| Cc1ccc(-n2nnc(C3CC3)n2)cc1NC(=O)c1cnn2ccc(-c3cnn(CC(C)(C)O)c3)cc12 | 8.77 |
| COC(=O)N1CC(n2nnc(-c3ccc(C)c(NC(=O)c4cnn5ccc(N6CC[C@@H](N(C)C)C6)cc45)c3)n2)C1 | 6.95 |
| O=C(Nc1cc(-c2nnn(CC3CC(F)(F)C3)n2)ccc1Cl)c1cnn2ccccc12 | 8.12 |
